molecular target: Tyrosine-protein kinase Lyn (Homo sapiens)
Sequence (P07948 whole entry): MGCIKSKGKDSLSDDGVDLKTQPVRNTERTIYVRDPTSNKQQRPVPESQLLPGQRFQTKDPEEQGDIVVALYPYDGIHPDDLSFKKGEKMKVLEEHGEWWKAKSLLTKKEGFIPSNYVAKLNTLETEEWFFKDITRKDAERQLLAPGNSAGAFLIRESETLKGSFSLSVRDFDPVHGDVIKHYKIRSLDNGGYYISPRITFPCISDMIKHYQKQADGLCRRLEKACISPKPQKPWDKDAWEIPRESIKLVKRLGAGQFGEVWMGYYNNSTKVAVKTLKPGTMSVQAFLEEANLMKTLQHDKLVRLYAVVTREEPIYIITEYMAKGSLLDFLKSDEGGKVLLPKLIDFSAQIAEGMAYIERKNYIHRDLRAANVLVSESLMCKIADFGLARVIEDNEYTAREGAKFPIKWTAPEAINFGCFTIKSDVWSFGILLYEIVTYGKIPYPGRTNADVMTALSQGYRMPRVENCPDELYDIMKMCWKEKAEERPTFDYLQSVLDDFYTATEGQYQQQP
assay.metric: IC50
Your reply should be a number followed by the unit it is expressed in.

Incoming: Could you tell me which IC50 is on file for COc1c(NC(=O)c2cc3cccc(NC(=O)c4ccc(NC5CC5)nc4)c3s2)cc(C(C)(C)C)cc1NS(C)(=O)=O ?
Outgoing: 230 nM

Hello, the source for this data is ChEMBL document CHEMBL1148722, in case you need it.
